// reported pIC50 for each item listed
- assay target: Active Human ERK2 (hERK2) (Homo sapiens (Human), UniProt P28482)
- Sequence (P28482 whole entry): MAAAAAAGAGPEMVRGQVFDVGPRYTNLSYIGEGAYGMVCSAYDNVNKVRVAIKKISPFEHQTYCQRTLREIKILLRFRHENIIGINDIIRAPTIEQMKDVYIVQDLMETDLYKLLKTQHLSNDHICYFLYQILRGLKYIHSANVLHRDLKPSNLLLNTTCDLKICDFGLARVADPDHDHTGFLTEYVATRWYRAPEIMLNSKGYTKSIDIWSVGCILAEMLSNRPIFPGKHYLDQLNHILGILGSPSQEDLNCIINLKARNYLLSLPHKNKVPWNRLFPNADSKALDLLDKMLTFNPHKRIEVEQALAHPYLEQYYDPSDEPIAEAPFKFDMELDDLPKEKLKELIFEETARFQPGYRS
- assay protocol: Active Human ERK2 (hERK2) Activity Assay (IMAP-FP)
- Format: biochemical
- condition details: phosphorylated active hERK2, 30 μM ATP; average; read-out: ERK 2 Human average IC50
pIC50: −log10 of the molar value.
measured parameter: pIC50

                                   compound  measured_parameter  readout_number
0  Cc1cc(-c2n[nH]c3cc(NC(=O)N[C@@H]4C[C@H]4c4ccccc4)ncc23)ccn1               pIC50            9.04
1  Cc1cc(-c2n[nH]c3cc(NC(=O)NC4CCCC(Oc5cccc(F)c5)C4)ncc23)ccn1 (stereo not shown) [Example 656]               pIC50            8.30
2  Cc1ccc(-c2n[nH]c3cc(NC(=O)N[C@H](C)c4ccc(F)cc4)ncc23)s1               pIC50            7.93
3  Cn1cc(-c2n[nH]c3cc(NC(=O)NCC4CCC4)ncc23)cn1               pIC50            8.69
